Experiment: Cytotoxicity against human HCT116 cells assessed as decrease in cell viability after 72 hrs by MTT assay
Type: functional, cell-based
Settings: HCT-116, 72 h
Assign IC50 to each entry below.
Answers are plain numbers, in µM.

Example compounds with recorded IC50:
• O=C1C2=C(OC(Cn3nncc3-c3ccccc3)C2)C(=O)c2ccccc21 (stereo not given) = 3.36
• O=C1C(=O)c2ccccc2C2=C1CC(Cn1cc(C3=CCCCC3)nn1)O2 (stereo not given) = 3.98
• CC1(C)CC(n2cc(-c3ccccc3)nn2)C2=C(O1)C(=O)c1ccccc1C2=O (stereo not given) = 9.63
• CC1(C)OC2=C(C(=O)C(=O)c3ccccc32)C1n1nnc(-c2ccccc2)c1I (stereo not given) = 3.35
• CCCCCCc1cn(CC2CC3=C(O2)c2ccccc2C(=O)C3=O)nn1 (stereo not given) = 2.13

Hi! Can you tell me IC50 for each of these compounds?
1. CC1(C)OC2=C(C(=O)c3ccccc3C2=O)C1n1nncc1-c1ccccc1 (stereo not given)
2. O=C1C(=O)c2ccccc2C2=C1CC(Cn1cc(C3CCCCC3)nn1)O2 (stereo not given)
3. O=C1C(=O)c2ccccc2C2=C1CC(Cn1nncc1-c1ccccc1)O2 (stereo not given)
4. O=C1C2=C(OC(Cn3nnc(-c4ccccc4)c3I)C2)C(=O)c2ccccc21 (stereo not given)
5. CC1(C)OC2=C(C(=O)c3ccccc3C2=O)C1n1nnc(-c2ccccc2)c1I (stereo not given)
6. O=C1C2=C(OC(Cn3cc(-c4ccccc4)nn3)C2)C(=O)c2ccccc21 (stereo not given)
7. CC1(C)OC2=C(C(=O)C(=O)c3ccccc32)C1n1nncc1-c1ccccc1 (stereo not given)
8. O=C1C(=O)c2ccccc2C2=C1CC(Cn1nnc(-c3ccccc3)c1-c1ccccc1)O2 (stereo not given)

1. 2.5
2. 2.17
3. 4.84
4. 6.04
5. 5.17
6. 8.7
7. 1.37
8. 1.68

---

Assay: Cytotoxicity against human HL60 cells assessed as decrease in cell viability after 72 hrs by MTT assay
Assay type: functional, cell-based
Conditions: HL-60, 72 h
Outcome Measure: pIC50
Answers are plain numbers, as −log10 of the molar value.

Example compounds with recorded pIC50:
- O=C1C2=C(OC(Cn3nnc(-c4ccccc4)c3I)C2)C(=O)c2ccccc21 (stereo not given): 5.27
- O=C1C2=C(OC(Cn3nncc3-c3ccccc3)C2)C(=O)c2ccccc21 (stereo not given): 5.52
- O=C1C(=O)c2ccccc2C2=C1CC(Cn1cc(C3(O)CCCCC3)nn1)O2 (stereo not given): 4.96
- O=C1C(=O)c2ccccc2C2=C1CC(Cn1nncc1-c1ccccc1)O2 (stereo not given): 5.39
- CC1(C)OC2=C(C(=O)c3ccccc3C2=O)C1n1nncc1-c1ccccc1 (stereo not given): 5.59
- CC1(C)OC2=C(C(=O)C(=O)c3ccccc32)[C@H](n2nncc2-c2ccccc2)[C@H]1Br: 6.18
- CC1(C)OC2=C(C(=O)C(=O)c3ccccc32)C1n1nncc1-c1ccccc1 (stereo not given): 5.83
- O=C1C2=C(OC(Cn3cc(-c4ccccc4)nn3)C2)C(=O)c2ccccc21 (stereo not given): 5.10

Would you kindly look at the next entry?
Specify measured pIC50 for CC1(C)OC2=C(C(=O)c3ccccc3C2=O)C1n1nnc(-c2ccccc2)c1I (stereo not given) .
5.37

---

Assay: Cytotoxicity against human PBMC assessed as decrease in cell viability after 72 hrs by MTT assay
Format: toxicity, cell-based
Conditions: PBMC (peripheral blood mononuclear cells)
Assign IC50 at 72 h to each entry below.
One number for each entry, in µM.

Example compounds with recorded IC50 at 72 h:
* O=C1C(=O)c2ccccc2C2=C1CC(Cn1cc(-c3ccccc3)nn1)O2 (stereo not given) | 3.24
* CC1(C)OC2=C(C(=O)C(=O)c3ccccc32)C1n1nncc1-c1ccccc1 (stereo not given) | 2.02
* CC1(C)OC2=C(C(=O)c3ccccc3C2=O)C1n1nnc(-c2ccccc2)c1I (stereo not given) | 7.86
* CC1(C)OC2=C(C(=O)C(=O)c3ccccc32)C1n1nnc(-c2ccccc2)c1I (stereo not given) | 4.08
* O=C1C(=O)c2ccccc2C2=C1CC(Cn1nnc(-c3ccccc3)c1I)O2 (stereo not given) | 3.68

Hi! Can you tell me IC50 at 72 h for each of these compounds?
1. CC1(C)OC2=C(C(=O)c3ccccc3C2=O)C1n1nncc1-c1ccccc1 (stereo not given)
2. O=C1C(=O)c2ccccc2C2=C1CC(Cn1cc(C3=CCCCC3)nn1)O2 (stereo not given)
3. O=C1C(=O)c2ccccc2C2=C1CC(Cn1cc(C3CCCCC3)nn1)O2 (stereo not given)
4. O=C1C(=O)c2ccccc2C2=C1CC(Cn1nnc(-c3ccccc3)c1-c1ccccc1)O2 (stereo not given)
5. O=C1C(=O)c2ccccc2C2=C1CC(Cn1nncc1-c1ccccc1)O2 (stereo not given)
6. CCCCCCc1cn(CC2CC3=C(O2)c2ccccc2C(=O)C3=O)nn1 (stereo not given)
7. CC1(C)OC2=C(C(=O)C(=O)c3ccccc32)[C@H](n2nncc2-c2ccccc2)[C@H]1Br

7.57
5.31
5.17
2.16
5.71
5.99
1.23
